Hey, just so you know, these numbers are from ChEMBL document CHEMBL1201862.

Tested on: UACC-62
Assay: NCI tumour cell line growth inhibition, 48 h
The source made the active and inactive calls. Cut-off read from the data, not from the text of the source: active = GI50 up to about 1.1 µM and inactive = higher.
QUANTITY MEASURED: GI50

// GI50 value for COc1cc(C2C3=C(COC3=O)Oc3cc4c(cc32)OCO4)ccc1O (stereo not given) : 0.356 µM (active)

// GI50 value for Cc1c(Cl)cccc1NC(=O)CC1C(=O)Nc2ccccc2S1(=O)=O (stereo not given) : 7.52 µM (inactive)

// GI50 value for "CCOC(=O)c1ccc(/N=C2\SC(=S)N(c3ccc(F)cc3)\C2=N/c2ccc(C(=O)OCC)cc2)cc1" : 8.07 µM (inactive)

// GI50 value for "Nn1c(Sc2nc3ccccc3c(=O)n2N)nc2ccccc2c1=O" : 11.5 µM (inactive)

// GI50 value for Cc1c(-c2ccc(-c3ccccc3F)cc2)nc2ccc(F)cc2c1C(=O)O [BREQUINAR SODIUM] : 0.265 µM (active)

// GI50 value for "CCSc1nc(C)nc2c1sc1nc3ccccc3n12" : > 100 µM (inactive)

For each of the molecules below, state GI50.
1. C[C@@H]1[C@@H](C)C(c2ccccc2)O[Si]1(C(C)(C)C)C(C)(C)C (stereo not given in full)
2. CCN(CCCOc1ccccc1)CCN(CC)CCCOc1ccccc1
3. O=C1CCCCc2cccc(O)c21
4. CC[C@H](CO)Nc1nc(NCc2ccccc2)c2ncn(C(C)C)c2n1

Result string:
19.1 µM (inactive)
14.2 µM (inactive)
> 100 µM (inactive)
8.07 µM (inactive)
